tgt: Sortase A (Staphylococcus aureus)
Sequence (whole entry): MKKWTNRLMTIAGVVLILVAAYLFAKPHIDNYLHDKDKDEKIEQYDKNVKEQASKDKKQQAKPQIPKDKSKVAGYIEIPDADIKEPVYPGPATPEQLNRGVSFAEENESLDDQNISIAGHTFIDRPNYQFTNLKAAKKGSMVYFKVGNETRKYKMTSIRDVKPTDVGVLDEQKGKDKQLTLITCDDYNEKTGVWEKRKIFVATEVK
assay-notes: Inhibition of 6-His tagged Staphylococcus aureus recombinant sortase delta N24 expressed in Escherichia coli BL21 (DE3) at 5 mM
Active and inactive are the calls of the source. The rule behind the calls is not given here.
The categories you may choose from are 1 = active, 0 = inactive

{"compound": "COC(=O)[C@@H]1C[C@H](C#N)[C@H](c2ccccc2)N1 (racemic)", "group-label": 0}
{"compound": "COC(=O)[C@@H]1C[C@H](C#N)[C@H](c2cccc(F)c2F)N1 (racemic)", "group-label": 0}
{"compound": "Cc1cn(C[C@@H]2C[C@H](C#N)[C@H](c3ccccc3)N2C)c(=O)[nH]c1=O (racemic)", "group-label": 0}
{"compound": "C=CS(=O)(=O)[C@H]1C[C@@H](C(=O)OC)N[C@H]1c1cccc(F)c1 (racemic)", "group-label": 1}
{"compound": "COC(=O)[C@@H]1C[C@H](C#N)[C@H](c2cccc(F)c2)N1 (racemic)", "group-label": 0}

Input line: Any idea what this test logged for COC(=O)[C@]1(C)C[C@@H](C#N)[C@H](c2ccccc2C)N1 (racemic) ?
Output line: 0

Input line: Any idea what this test logged for COC(=O)[C@]1(C)C[C@H](C#N)[C@H](c2ccccc2Cl)N1 (racemic) ?
Output line: 0

Input line: Any idea what this test logged for COC(=O)[C@@H]1C[C@@H](C#N)[C@H](c2cccc(Cl)c2)N1 (racemic) ?
Output line: 0

Input line: Any idea what this test logged for C=CS(=O)(=O)[C@H]1C[C@@H](C(=O)OC)N[C@H]1c1ccccc1F (racemic) ?
Output line: 1

Input line: Any idea what this test logged for C=CS(=O)(=O)[C@H]1C[C@@H](C(=O)OC)N[C@H]1c1ccccc1 (racemic) ?
Output line: 1

Input line: Any idea what this test logged for COC(=O)[C@@H]1C[C@H](C#N)[C@H](c2cccc(F)c2F)N1C (racemic) ?
Output line: 0

Input line: Any idea what this test logged for COC(=O)[C@]1(C)C[C@H](C#N)[C@H](c2ccccc2C)N1 (racemic) ?
Output line: 0

Input line: Any idea what this test logged for COC(=O)[C@@H]1C[C@@H](C#N)[C@H](c2cccc(F)c2)N1 (racemic) ?
Output line: 0

Input line: Any idea what this test logged for COC(=O)[C@@H]1C[C@H](C#N)[C@H](c2ccccc2)N1C (racemic) ?
Output line: 0

Input line: Any idea what this test logged for COC(=O)[C@]1(C)C[C@H](C#N)[C@H](c2ccc(Cl)cc2)N1 (racemic) ?
Output line: 0

Input line: Any idea what this test logged for COC(=O)[C@]1(C)C[C@H](C#N)[C@H](c2ccccc2C)N1C (racemic) ?
Output line: 0

Input line: Any idea what this test logged for COC(=O)[C@]1(C)C[C@@H](C#N)[C@H](c2ccc(Cl)cc2)N1 (racemic) ?
Output line: 0

Input line: Any idea what this test logged for COC(=O)[C@]1(C)C[C@@H](C#N)[C@H](c2ccccc2Cl)N1 (racemic) ?
Output line: 0

Input line: Any idea what this test logged for COC(=O)[C@@H]1C[C@@H](C#N)[C@H](c2cccc(F)c2F)N1 (racemic) ?
Output line: 0

====

tgt: Sortase A (Staphylococcus aureus)
assay-notes: Inhibition of 6-His tagged Staphylococcus aureus recombinant sortase delta N24 expressed in Escherichia coli BL21 (DE3)
pIC50: −log10 of the molar value.
Please use YES whenever pIC50 is not below 3, and NO whenever it is.

These solved cases illustrate the format of a correct answer.
{"molecule": "C=CS(=O)(=O)[C@H]1C[C@@](CCC(=O)OC)(C(=O)OC)N[C@H]1c1cccnc1 (racemic)", "group-label": "NO"}
{"molecule": "C=CS(=O)(=O)[C@H]1C[C@]2(C(=O)OC)CCC(=O)N2[C@H]1c1ccc(OC)c(OC)c1 (racemic)", "group-label": "NO"}
{"molecule": "O=c1c(O)c(-c2ccc(O)cc2O)oc2cc(O)cc(O)c12 [MORIN]", "group-label": "YES"}
{"molecule": "C=CS(=O)(=O)c1ccccc1 [(ETHENYLSULFONYL)BENZENE]", "group-label": "YES"}

Input line: API: above_or_equal(metric=pIC50, cutoff=3) for item C=CS(=O)(=O)[C@H]1C[C@@H](C(=O)OC)N[C@H]1c1ccccc1F (racemic)
Output line: NO

Input line: API: above_or_equal(metric=pIC50, cutoff=3) for item CN(C)C(=N)N.O=C(NCCSSCCNC(=O)/C(Cc1ccc(S(=O)(=O)O)c(Br)c1)=N/O)/C(Cc1ccc(O)c(Br)c1)=N/O
Output line: YES

Input line: API: above_or_equal(metric=pIC50, cutoff=3) for item C=CS(=O)(=O)[C@H]1C[C@]2(C(=O)OC)CCC(=O)N2[C@H]1c1cccnc1 (racemic)
Output line: NO

Input line: API: above_or_equal(metric=pIC50, cutoff=3) for item C=CS(=O)(=O)[C@H]1C[C@@](CCC(=O)OC)(C(=O)OC)N[C@H]1c1ccc(OC)c(OC)c1 (racemic)
Output line: NO

Input line: API: above_or_equal(metric=pIC50, cutoff=3) for item COc1cc(/C=C/C(=O)CC(=O)/C=C/c2ccc(O)c(OC)c2)ccc1O [CURCUMIN]
Output line: YES

Input line: API: above_or_equal(metric=pIC50, cutoff=3) for item C=CS(=O)(=O)[C@H]1C[C@]2(C(=O)OC)CCC(=O)N2[C@H]1c1ccccc1 (racemic)
Output line: NO
